# Foxtail, Giant plant response rating (0 to 100 scale) per record follows
System: foxtail, giant (giant foxtail, Setaria faberii)
Assay: Test A preemergence, visual plant response rating
Format: in vivo
Conditions: 500 g ai/ha Preemergence; approx. 10 days
API doc: respond with a numeric literal and nothing else, no unit.

Previously resolved entries follow.
Input line: Quick one: Foxtail, Giant plant response rating (0 to 100 scale) of C=CCO/N=C(\c1c(O)c(C)nn(C)c1=O)c1ccc(F)c2ccccc12 [Compound 86] ?
Output line: 100

Input line: Please answer likewise for Cc1nn(C)c(=O)c(C(=NOCC=CCl)c2ccc(F)c3ccccc23)c1O [Compound 107]
Output line: 100

Input line: Now this one: CON=C(c1cccc(Cl)c1)c1c(O)c(C)nn(C2CC2)c1=O (mixture of isomers) [Compound 33]
Output line: 0

// next item, Foxtail, Giant plant response rating (0 to 100 scale) requested
Input line: Form field: reported Foxtail, Giant plant response rating (0 to 100 scale) of CO/N=C(\c1ccc(F)cc1C)c1c(O)c(C)nn(C)c1=O [Compound 72]
Output line: 10
